# Test system: T-47D breast
# assay_remarks: NCI-60 one-dose screen, 48 h (100 = growth as untreated, 0 = no growth, -100 = all killed)
# conditions: 10 µM unless noted
The panel holds about 83,000 compounds, 20% with a hit somewhere; the sample as a whole holds those more often. Active and inactive are the calls of the source. How the source made its calls: active means growth percent below 10; inactive means the rest.
A collection of compounds and their measured growth
readout_label: growth

{"compound": "O=C(O)c1c[nH]c2ccccc2c1=O", "reported": "89.5% (inactive)"}
{"compound": "COc1cccc(N=CNc2cccc(OC)c2)c1", "reported": "92% (inactive)"}
{"compound": "C=CC1=NC(C)(C)CC(C)O1 (centres undefined)", "reported": "92.2% (inactive)"}
{"compound": "CC(=O)c1cccc(N(C)S(=O)(=O)c2ccc(C)cc2)c1", "reported": "87.8% (inactive)"}

// data source = PubChem BioAssay (NCI)
